Please go through the items and note down their recombinant barcode read abundance (log10).
# EXPERIMENT_NOTES: recombinant barcode read abundance after kanamycin selection (control-corrected) (log10(CPM+1)); higher = more efficient recombination; sequences stand for … in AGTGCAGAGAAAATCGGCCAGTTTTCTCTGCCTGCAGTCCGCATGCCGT…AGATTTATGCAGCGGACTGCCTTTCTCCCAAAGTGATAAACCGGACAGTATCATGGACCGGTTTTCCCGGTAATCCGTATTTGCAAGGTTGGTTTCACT; site = the 11-nt target;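 also: IS621 recombinase and bridge RNA in Escherichia coli cells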
Give the figure only, with no unit attached.

Ask | // returns reported recombinant barcode read abundance (log10) for input CGTCAACCTTGGGTTCTAACCTGTTGCCT (site CGTCATCCTAG)
Reply | 0.115

Ask | Form field: reported recombinant barcode read abundance (log10) of TGGCCTGCTTGGGTTCTAACCTGTTGCCT (site TGGCGAGCTAG)
Reply | 0.176

Ask | Quick check: recombinant barcode read abundance (log10) of AGGCAGACTTGGGTTCTAACCTGTTGCCA (site AGGGAGACTTG) ?
Reply | 0.216

Ask | recombinant barcode read abundance (log10) lookup needed for AGGTAACCTTGGGTTCTAACCTGTTGCCT (site CGGTAACCTAG) , thanks.
Reply | 0.23

Ask | Entry GGGTCGGCTTGGGTTCTAACCTGTTGCGT (site GGGTCGGCTTC) has what recombinant barcode read abundance (log10)?
Reply | 0.0402

Ask | Fill in the blank: the reported recombinant barcode read abundance (log10) of GTAACCTCTTGGGTTCTAACCTGTTGCCG (site GTAACCTCTCG) is ____.
Reply | 1.48

Ask | recombinant barcode read abundance (log10) lookup needed for GCTGGACCTTGGGTTCTAACCTGTTGCAT (site GCTCGTCCTAT) , thanks.
Reply | 0.0463

Ask | If you can, please state the reported recombinant barcode read abundance (log10) value of CTAAATCCTTGGGTTCTAACCTGTTGCCT (site GTAAATCCTAG) .
Reply | 0.0932

Ask | Can you share its recombinant barcode read abundance (log10)? I mean this sequence: TCTGATTCTTGGGTTCTAACCTGTTGCGT (site TCTGATTCTAC)
Reply | 1.4

Ask | Entry TACCGGTCTTGGGTTCTAACCTGTTGCTT (site TACCAGTCTAA) has what recombinant barcode read abundance (log10)?
Reply | 0.18

Ask | What value of measured recombinant barcode read abundance (log10) is listed for CTTCGGGCTTGGGTTCTAACCTGTTGCAG (site CATCGGGCTCT) ?
Reply | 1.25

Ask | May I ask what recombinant barcode read abundance (log10) has been recorded for CTTCGTCCTTGGGTTCTAACCTGTTGCAT (site CTTCGTCCTAG) ?
Reply | 0.139

Ask | Looking for the measured recombinant barcode read abundance (log10) of CCTACATCTTGGGTTCTAACCTGTTGCCT (site CCTACAGCTAG) , can you help?
Reply | 0.0484

Ask | # recombinant barcode read abundance (log10) lookup, item CTTCGAGCTTGGGTTCTAACCTGTTGCAG (site CTTCGAGCTCG)
Reply | 0.168

Ask | GET /values?readout=recombinant barcode read abundance (log10)&item= GAGCTCACTTGGGTTCTAACCTGTTGCCA (site GAGCACCCTTG)
Reply | 0.0579

Ask | Need recombinant barcode read abundance (log10), item ATGTAGTCTTGGGTTCTAACCTGTTGCCT (site ATGTAGTCTAG)
Reply | 1.89

Ask | Fill in the blank: the reported recombinant barcode read abundance (log10) of GACCCATCTTGGGTTCTAACCTGTTGCCT (site GACCCATCTAG) is ____.
Reply | 0.683

Ask | Sample CCTCAATCTTGGGTTCTAACCTGTTGCTT (site CCTCAGTCTAA) — what was its recombinant barcode read abundance (log10)?
Reply | 0.0516

Ask | Fill in the blank: the reported recombinant barcode read abundance (log10) of GTTACGTCTTGGGTTCTAACCTGTTGCTT (site AGTACGTCTAA) is ____.
Reply | 0.115

Ask | Consider the sequence shown here: TAGGATACTTGGGTTCTAACCTGTTGCAC (site TAGGATACTTT) What is its recorded recombinant barcode read abundance (log10)?
Reply | 0.107

Ask | Would you mind telling me what recombinant barcode read abundance (log10) value was observed for TGGCAGTCTTGGGTTCTAACCTGTTGCCT (site TGGCAGCCTAG) ?
Reply | 0.0447

Ask | Can you share its recombinant barcode read abundance (log10)? I mean this sequence: GTACTACCTTGGGTTCTAACCTGTTGCCG (site GTACTACCTCG)
Reply | 1.14

Ask | What value of measured recombinant barcode read abundance (log10) is listed for TCTAGAACTTGGGTTCTAACCTGTTGCCT (site TCTAGATCTAG) ?
Reply | 0.0276

Ask | Requested read-out: recombinant barcode read abundance (log10). Entry: ATAGCTACTTGGGTTCTAACCTGTTGCCT (site ATAGCTACTAG)
Reply | 1.2

Ask | Any idea what its recombinant barcode read abundance (log10) is? The sequence is GACCAGCCTTGGGTTCTAACCTGTTGCGT (site GACCAGCCTAA)
Reply | 0.104

Ask | Could you share which recombinant barcode read abundance (log10) value was measured for CGCCGTACTTGGGTTCTAACCTGTTGCCT (site CGGCGTACTAG) ?
Reply | 0.349

Ask | Which recombinant barcode read abundance (log10) reading was recorded for the sequence GAGCTTGCTTGGGTTCTAACCTGTTGCGA (site TGCGGGTCTAG) ?
Reply | 0.122

Ask | What value of recombinant barcode read abundance (log10) has been recorded for this entry: TAGACATCTTGGGTTCTAACCTGTTGCAT (site AAGACATCTAA)
Reply | 0.133

Ask | Form field: reported recombinant barcode read abundance (log10) of ACTTTGTCTTGGGTTCTAACCTGTTGCCT (site ACGTTGTCTAG)
Reply | 0.0449

Ask | Which value of recombinant barcode read abundance (log10) has been reported for GTAATGTCTTGGGTTCTAACCTGTTGCCT (site GTAATGTCTAG) in the records?
Reply | 2.04

Ask | May I ask what recombinant barcode read abundance (log10) has been recorded for GTTACCGCTTGGGTTCTAACCTGTTGCCT (site GTTACCGCTAG) ?
Reply | 1.64

Ask | Param item = ACTTTGTCTTGGGTTCTAACCTGTTGCCT (site ACATTGTCTAG) ; retrieve measured recombinant barcode read abundance (log10).
Reply | 0.0289

Ask | // query recombinant barcode read abundance (log10) value for entry GTAAATCCTTGGGTTCTAACCTGTTGCCT (site TTAAATCCTAG)
Reply | 0.132

Ask | Could you tell me which recombinant barcode read abundance (log10) is on file for CTAAGCACTTGGGTTCTAACCTGTTGCCG (site CTAAATACTCG) ?
Reply | 0.849

Ask | recombinant barcode read abundance (log10) lookup needed for CACTTCCCTTGGGTTCTAACCTGTTGCCT (site CACTTCCCTAC) , thanks.
Reply | 0.0709

Ask | Which recombinant barcode read abundance (log10) is reported for this sequence? CTTTCCTCTTGGGTTCTAACCTGTTGCTT (site CATTACTCTAA)
Reply | 0.2

Ask | What value of recombinant barcode read abundance (log10) has been recorded for this entry: GAGGGTCCTTGGGTTCTAACCTGTTGCCT (site GAGGGTCCTAC)
Reply | 0.133

Ask | What value of recombinant barcode read abundance (log10) has been reported for the following sequence? TATTGGCCTTGGGTTCTAACCTGTTGCGT (site TATTGGCCTAC)
Reply | 0.202

Ask | Query: recombinant barcode read abundance (log10); subject: GTGTGTCCTTGGGTTCTAACCTGTTGCCT (site GTGTGTCCTAG)
Reply | 1.31

Ask | // recombinant barcode read abundance (log10) lookup, key: GAGGGCCCTTGGGTTCTAACCTGTTGCCT (site GAGGGCCCTAG)
Reply | 2.41

Ask | Field request: recombinant barcode read abundance (log10) | item: CGTCGGGCTTGGGTTCTAACCTGTTGCAG (site CGTCGGGCTCT)
Reply | 1.38

Ask | Give the measured recombinant barcode read abundance (log10) of ATTGGTCCTTGGGTTCTAACCTGTTGCCT (site ATTGGTCCTAG) .
Reply | 1.66

Every entry's value here was drawn from the supplement of paper PMC11208160.
